# System Under Test: Neuronal acetylcholine receptor; alpha4/beta2 (Homo sapiens, UniProt P17787+P43681)
# Measurement Notes: Maximal agonist activity on human alpha-4-beta-2 ACHR expressed in HEK293 cells assessed as change in intracellular calcium concentration by FLIPR relative to nicotine
# Format: functional, cell-based

>  <Molecule>
N#Cc1cncc(N2CC[C@@H]3CN[C@@H]3C2)c1

>  <System Under Test>
Neuronal acetylcholine receptor; alpha4/beta2 (Homo sapiens, UniProt P17787+P43681)

>  <Measurement Unit>
%

>  <Activity>
76

$$$$
>  <Molecule>
NC(=O)c1cc(N2C[C@H]3CCNC[C@H]32)cnc1Br

>  <System Under Test>
Neuronal acetylcholine receptor; alpha4/beta2 (Homo sapiens, UniProt P17787+P43681)

>  <Measurement Unit>
%

>  <Activity>
133

$$$$
>  <Molecule>
COc1cncc(N2CC[C@H]3CN[C@H]3C2)c1

>  <System Under Test>
Neuronal acetylcholine receptor; alpha4/beta2 (Homo sapiens, UniProt P17787+P43681)

>  <Measurement Unit>
%

>  <Activity>
178

$$$$
>  <Molecule>
Cc1cncc(N2CC[C@@H]3CN[C@@H]3C2)c1

>  <System Under Test>
Neuronal acetylcholine receptor; alpha4/beta2 (Homo sapiens, UniProt P17787+P43681)

>  <Measurement Unit>
%

>  <Activity>
54

$$$$
>  <Molecule>
Brc1cc(N2CC[C@@H]3CN[C@@H]3C2)cnc1Br

>  <System Under Test>
Neuronal acetylcholine receptor; alpha4/beta2 (Homo sapiens, UniProt P17787+P43681)

>  <Measurement Unit>
%

>  <Activity>
86

$$$$
>  <Molecule>
Clc1cc(N2CC[C@H]3CN[C@H]3C2)cnc1Cl

>  <System Under Test>
Neuronal acetylcholine receptor; alpha4/beta2 (Homo sapiens, UniProt P17787+P43681)

>  <Measurement Unit>
%

>  <Activity>
221

$$$$
>  <Molecule>
COc1cncc(N2C[C@H]3CCNC[C@H]32)c1

>  <System Under Test>
Neuronal acetylcholine receptor; alpha4/beta2 (Homo sapiens, UniProt P17787+P43681)

>  <Measurement Unit>
%

>  <Activity>
104

$$$$
>  <Molecule>
Clc1ccc(N2CC[C@H]3CN[C@H]3C2)cn1

>  <System Under Test>
Neuronal acetylcholine receptor; alpha4/beta2 (Homo sapiens, UniProt P17787+P43681)

>  <Measurement Unit>
%

>  <Activity>
114

$$$$
>  <Molecule>
c1ncc(N2C[C@@H]3CCNC[C@@H]32)cn1 (single isomer, unassigned)

>  <System Under Test>
Neuronal acetylcholine receptor; alpha4/beta2 (Homo sapiens, UniProt P17787+P43681)

>  <Measurement Unit>
%

>  <Activity>
104

$$$$
>  <Molecule>
COc1cc(N2C[C@@H]3CCNC[C@@H]32)cnc1Br

>  <System Under Test>
Neuronal acetylcholine receptor; alpha4/beta2 (Homo sapiens, UniProt P17787+P43681)

>  <Measurement Unit>
%

>  <Activity>
65

$$$$
>  <Molecule>
COc1cc(N2C[C@H]3CCNC[C@H]32)cnc1Br

>  <System Under Test>
Neuronal acetylcholine receptor; alpha4/beta2 (Homo sapiens, UniProt P17787+P43681)

>  <Measurement Unit>
%

>  <Activity>
120

$$$$
